FYI, the data here is from ChEMBL document CHEMBL3875216.

Tested on: Pseudomonas aeruginosa
assayDetails: Inhibition of LasR-dependent quorum sensing activity in Pseudomonas aeruginosa MH602 harboring GFP-fused […] LasB promoter assessed as inhibition of 3-oxo-dodecanoyl HSL-induced GFP expression at 500 uM measured after 8 hrs by fluorescence assay relative to control
Overview of reported inhibition across a group of molecules:
Unit % implied. Number only.

The examples below pair each entry with its known result.
1. CCCCCCCCCCCC(=O)N[C@@H]1[C@@H](O)[C@H](O)[C@@H](CO)O[C@H]1O : 12.6
2. COc1ccc(CC(=O)N[C@@H]2[C@@H](O)[C@H](O)[C@@H](CO)O[C@H]2O)cc1 : 3.2

Query string: State the recorded inhibition for this entry: `CCCC(=O)N[C@@H]1[C@@H](O)[C@H](O)[C@@H](CO)O[C@H]1O`
Result string: 13.5

Query string: Item under review: `CCCCCC(=O)N[C@H]1[C@H](OC(C)=O)O[C@H](COC(C)=O)[C@@H](OC(C)=O)[C@@H]1OC(C)=O` . Reported inhibition?
Result string: 3.5

Query string: Endpoint output: inhibition of `O=C(CCCc1ccccc1)N[C@@H]1[C@@H](O)[C@H](O)[C@@H](CO)O[C@H]1O` . Value?
Result string: 5.6

----------
This section presents molecules with their documented inhibition at 1000 µM values.
System: Escherichia coli
assayDetails: Growth inhibition of Escherichia coli MT102 at 1 mM after 8 hrs relative to control
reportedConditions: MT102, 8 h, read-out: GI
Just the number in %, nothing appended.

Some molecules with known inhibition at 1000 µM results, for comparison:
1. CCCCCCCCCCCC(=O)N[C@@H]1[C@@H](O)[C@H](O)[C@@H](CO)O[C@H]1O : 46.2
2. CCCCCCCC(=O)N[C@H]1[C@H](OC(C)=O)O[C@H](COC(C)=O)[C@@H](OC(C)=O)[C@@H]1OC(C)=O : 0

Query string: Field request: inhibition at 1000 µM | item: `CCCCCCCCCCCC(=O)N[C@H]1[C@H](OC(C)=O)O[C@H](COC(C)=O)[C@@H](OC(C)=O)[C@@H]1OC(C)=O`
Result string: 0

Query string: What does the record list as inhibition at 1000 µM for `CCCCCC(=O)CC(=O)N[C@H]1[C@H](OC(C)=O)O[C@H](COC(C)=O)[C@@H](OC(C)=O)[C@@H]1OC(C)=O` ?
Result string: 2.3

Query string: Consider the molecule shown here: `CCCCCCCC(=O)N[C@@H]1[C@@H](O)[C@H](O)[C@@H](CO)O[C@H]1O` What is its recorded inhibition at 1000 µM?
Result string: 10.6

Query string: Quick check: inhibition at 1000 µM of `CC(=O)OC[C@H]1O[C@@H](OC(C)=O)[C@H](NC(=O)CCCc2ccccc2)[C@@H](OC(C)=O)[C@@H]1OC(C)=O` ?
Result string: 64.7

Query string: # input molecule: `CC(=O)OC[C@H]1O[C@@H](OC(C)=O)[C@H](NC(=O)CC(=O)CCCc2ccccc2)[C@@H](OC(C)=O)[C@@H]1OC(C)=O` ; wanted: its inhibition at 1000 µM
Result string: 2.6

Query string: Quick check: inhibition at 1000 µM of `O=C(Cc1ccc(Cl)cc1)N[C@@H]1[C@@H](O)[C@H](O)[C@@H](CO)O[C@H]1O` ?
Result string: 0

Query string: Given the entry `CC(=O)OC[C@H]1O[C@@H](OC(C)=O)[C@H](NC(=O)Cc2ccc(C(F)(F)F)cc2)[C@@H](OC(C)=O)[C@@H]1OC(C)=O` , report its measured inhibition at 1000 µM.
Result string: 0

Query string: Tell me the measured inhibition at 1000 µM of `CCCCCC(=O)N[C@@H]1[C@@H](O)[C@H](O)[C@@H](CO)O[C@H]1O` , please.
Result string: 11.7

Query string: Reported inhibition at 1000 µM for `O=C(Cc1ccc(C(F)(F)F)cc1)N[C@@H]1[C@@H](O)[C@H](O)[C@@H](CO)O[C@H]1O` : what is it?
Result string: 0
